- system_name: RNC–SRP: coumarin-labeled SRP C235 loaded with ribosome–nascent chain complex (E. coli) (UniProt P0AGD7)
- Sequence (P0AGD7 whole entry, looked up, one chain of several): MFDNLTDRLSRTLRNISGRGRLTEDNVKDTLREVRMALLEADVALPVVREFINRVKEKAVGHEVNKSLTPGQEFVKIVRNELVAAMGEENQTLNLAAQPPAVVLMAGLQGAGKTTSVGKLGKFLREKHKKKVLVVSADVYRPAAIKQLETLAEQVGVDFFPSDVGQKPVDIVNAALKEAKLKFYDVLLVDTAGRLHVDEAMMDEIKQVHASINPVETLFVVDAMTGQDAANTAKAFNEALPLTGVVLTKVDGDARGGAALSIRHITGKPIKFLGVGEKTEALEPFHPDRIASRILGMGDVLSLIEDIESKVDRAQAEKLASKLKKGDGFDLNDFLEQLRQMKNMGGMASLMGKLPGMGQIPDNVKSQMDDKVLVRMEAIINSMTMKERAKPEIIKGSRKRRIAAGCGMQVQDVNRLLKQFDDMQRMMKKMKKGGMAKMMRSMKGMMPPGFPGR
- method_notes: FRET or BRET
pKd: −log10 of the molar value.

{"substance": "BODIPY-fluorescein–labeled FtsY C487 (from UniProt P10121 1-497) (receptor)", "pKd": 7.17}
